The measured values listed here are drawn from paper PMC9234962.

- targetOrSystem: Nluc-H1R (Homo sapiens, UniProt P35367)
- Sequence (P35367 whole entry): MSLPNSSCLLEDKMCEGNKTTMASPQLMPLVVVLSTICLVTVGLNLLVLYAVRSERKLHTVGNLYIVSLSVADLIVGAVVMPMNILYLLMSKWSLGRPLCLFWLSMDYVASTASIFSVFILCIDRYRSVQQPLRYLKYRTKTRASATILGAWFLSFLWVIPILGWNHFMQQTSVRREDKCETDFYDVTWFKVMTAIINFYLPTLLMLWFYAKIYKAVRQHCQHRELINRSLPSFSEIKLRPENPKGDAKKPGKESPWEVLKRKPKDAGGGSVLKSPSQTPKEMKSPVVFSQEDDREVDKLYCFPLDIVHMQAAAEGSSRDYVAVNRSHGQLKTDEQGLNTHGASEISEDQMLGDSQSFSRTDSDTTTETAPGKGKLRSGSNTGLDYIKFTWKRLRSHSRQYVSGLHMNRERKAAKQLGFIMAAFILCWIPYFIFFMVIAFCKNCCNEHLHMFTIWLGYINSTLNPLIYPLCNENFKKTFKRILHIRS
- assayText: NanoBRET saturation binding assay on Nluc-H1R expressing HEK293T cells
- Design: expressed in transfected cells
- recordedConditions: saturation binding curves, whole HEK293T cells, non-specific with 10 μM mepyramine; mean ± SEM
- Text: Total and non-specific saturation binding curves from NanoBRET saturation binding assay were fitted simultaneously using eq 1: [drawing 4] 1 where Bmax is the maximal specific binding, [B] is the concentration of fluorescent ligand in nM, KD is the equilibrium dissociation constant in nM, M is the slope of the non-specific component, and C is the intercept with the Y axis.
Square brackets hold non-standard residues; d marks the D form. Side chains are listed from the residue outwards. Peptide text beside a SMILES is read from it. * marks the point of attachment. X1 = O=C(COc1ccc(/C=C/C2=[N+]3C(=Cc4ccc(-c5cccs5)n4[B-]3(F)F)C=C2)cc1)*; Propanoyl(3-Pip(4-O-2-BnPh)) = O=C(CCN1CCC(Oc2ccccc2Cc2ccccc2)CC1)*; BODIPY(FL) = CC1=CC(C)=[N+]2C1=Cc1ccc(CCC(=O)*)n1[B-]2(F)F; Ahx = NCCCCCC(=O)O; βAla = NCCC(=O)O
assayMetric: pKD
// return just the number, without any unit appended

stdin: Given the molecule CC(C)[C@H](NC(=O)CCN1CCC(Oc2ccccc2Cc2ccccc2)CC1)C(=O)N[C@@H](CO)C(=O)N[C@@H](CC(N)=O)C(=O)N[C@@H](Cn1cc(COc2ccc(/C=C/C3=[N+]4C(=Cc5ccc(-c6cccs6)n5[B-]4(F)F)C=C3)cc2)nn1)C(N)=O [Compound 22a] , what is its reported pKD?
stdout: 7.55

stdin: Given the molecule C[C@@H](O)[C@H](NC(=O)CCN1CCC(Oc2ccccc2Cc2ccccc2)CC1)C(=O)N[C@@H](CO)C(=O)N[C@@H](CC(N)=O)C(=O)NCCC(=O)N[C@@H](CCCCNC(=O)COc1ccc(/C=C/C2=[N+]3C(=Cc4ccc(-c5cccs5)n4[B-]3(F)F)C=C2)cc1)C(N)=O [Compound 31c] ({Propanoyl(3-Pip(4-O-2-BnPh))}-TSN[βAla]K(X1)-NH2) , what is its reported pKD?
stdout: 8.20

stdin: Given the molecule Cc1cc(C)n2c1C=C1C=CC(CCC(=O)NCCCCCC(=O)NCCCC[C@H](NC(=O)CCNC(=O)[C@H](CC(N)=O)NC(=O)[C@H](CO)NC(=O)[C@@H](NC(=O)CCN3CCC(Oc4ccccc4Cc4ccccc4)CC3)C(C)C)C(N)=O)=[N+]1[B-]2(F)F [Compound 38e] ({Propanoyl(3-Pip(4-O-2-BnPh))}-VSN[βAla]K([Ahx-BODIPY(FL)])-NH2) , what is its reported pKD?
stdout: 5.28

stdin: Given the molecule CC(C)[C@H](NC(=O)CCN1CCC(Oc2ccccc2Cc2ccccc2)CC1)C(=O)N[C@@H](CO)C(=O)N[C@@H](CC(N)=O)C(=O)NCCC(=O)N[C@@H](CCCCNC(=O)CCCCCNC(=O)COc1ccc(/C=C/C2=[N+]3C(=Cc4ccc(-c5cccs5)n4[B-]3(F)F)C=C2)cc1)C(N)=O [Compound 38a] ({Propanoyl(3-Pip(4-O-2-BnPh))}-VSN[βAla]K([Ahx-X1])-NH2) , what is its reported pKD?
stdout: 7.74

stdin: Given the molecule C[C@H](NC(=O)[C@@H](NC(=O)CCN1CCC(Oc2ccccc2Cc2ccccc2)CC1)[C@@H](C)O)C(=O)N[C@@H](Cc1ccc(O)cc1)C(=O)NCCC(=O)N[C@@H](CCCCNC(=O)COc1ccc(/C=C/C2=[N+]3C(=Cc4ccc(-c5cccs5)n4[B-]3(F)F)C=C2)cc1)C(N)=O [Compound 31h] ({Propanoyl(3-Pip(4-O-2-BnPh))}-TAY[βAla]K(X1)-NH2) , what is its reported pKD?
stdout: 8.23

stdin: Given the molecule CC[C@H](C)[C@H](NC(=O)CCN1CCC(Oc2ccccc2Cc2ccccc2)CC1)C(=O)N[C@@H](CO)C(=O)N[C@@H](CC(N)=O)C(=O)NCCC(=O)N[C@@H](CCCCNC(=O)COc1ccc(/C=C/C2=[N+]3C(=Cc4ccc(-c5cccs5)n4[B-]3(F)F)C=C2)cc1)C(N)=O [Compound 31i] ({Propanoyl(3-Pip(4-O-2-BnPh))}-ISN[βAla]K(X1)-NH2) , what is its reported pKD?
stdout: 8.33

----------
- targetOrSystem: Nluc-H1R (Homo sapiens)
- assayText: NanoBRET competition binding assay (displacement of 1) on Nluc-H1R expressing HEK293T cells
- recordedConditions: displacement of 1 (25 nM, KD = 8 nM), whole HEK293T cells, Cheng–Prusoff
Square brackets hold non-standard residues; d marks the D form. Peptide text beside a SMILES is read from it. * marks the point of attachment. Propanoyl(3-Pip(4-O-2-BnPh)) = O=C(CCN1CCC(Oc2ccccc2Cc2ccccc2)CC1)*
I'd appreciate it if you could supply pKi values for the items below.
pKi is defined as minus the log10 of a concentration measured in mol/L.

stdin: Given the molecule CC(C)[C@H](NC(=O)CCN1CCC(Oc2ccccc2Cc2ccccc2)CC1)C(=O)N[C@@H](CO)C(=O)N[C@@H](CC(=O)O)C(=O)N[C@H](Cc1ccccc1)C(N)=O [Compound 10i] ({Propanoyl(3-Pip(4-O-2-BnPh))}-VSD[dF]-NH2) , what is its reported pKi?
stdout: 6.76

stdin: Given the molecule CC(C)[C@H](NC(=O)CCN1CCC(Oc2ccccc2Cc2ccccc2)CC1)C(=O)NCC(=O)N[C@@H](C)C(=O)N[C@H](Cc1ccccc1)C(N)=O [Compound 9a] ({Propanoyl(3-Pip(4-O-2-BnPh))}-VGA[dF]-NH2) , what is its reported pKi?
stdout: 6.30

stdin: Given the molecule C[C@H](NC(=O)[C@H](C)NC(=O)[C@H](Cc1ccccc1)NC(=O)CCN1CCC(Oc2ccccc2Cc2ccccc2)CC1)C(=O)N[C@H](Cc1ccccc1)C(N)=O [Compound 8d] ({Propanoyl(3-Pip(4-O-2-BnPh))}-FAA[dF]-NH2) , what is its reported pKi?
stdout: 5.88

stdin: Given the molecule C[C@H](NC(=O)[C@H](C)NC(=O)[C@H](CO)NC(=O)CCN1CCC(Oc2ccccc2Cc2ccccc2)CC1)C(=O)N[C@H](Cc1ccccc1)C(N)=O [Compound 8f] ({Propanoyl(3-Pip(4-O-2-BnPh))}-SAA[dF]-NH2) , what is its reported pKi?
stdout: 6.39

----------
- targetOrSystem: Nluc-H1R (Homo sapiens)
- assayText: NanoBRET competition binding assay (displacement of 1) on Nluc-H1R expressing HEK293T cells
- recordedConditions: displacement of 1 (25 nM, KD = 8 nM), whole HEK293T cells, Cheng–Prusoff
Square brackets hold non-standard residues; d marks the D form. Peptide text beside a SMILES is read from it. * marks the point of attachment. Propanoyl(3-Pip(4-O-2-BnPh)) = O=C(CCN1CCC(Oc2ccccc2Cc2ccccc2)CC1)*
assayMetric: pKi
pKi is defined as minus the log10 of a concentration measured in mol/L.

stdin: Given the compound C[C@H](NC(=O)[C@H](C)NC(=O)[C@H](Cc1ccc(O)cc1)NC(=O)CCN1CCC(Oc2ccccc2Cc2ccccc2)CC1)C(=O)N[C@H](Cc1ccccc1)C(N)=O [Compound 8e] ({Propanoyl(3-Pip(4-O-2-BnPh))}-YAA[dF]-NH2) , what is its reported pKi?
stdout: 5.93

stdin: Given the compound CC(C)[C@H](NC(=O)CCN1CCC(Oc2ccccc2Cc2ccccc2)CC1)C(=O)N[C@@H](CO)C(=O)N[C@@H](Cc1ccccc1)C(=O)N[C@H](Cc1ccccc1)C(N)=O [Compound 10c] ({Propanoyl(3-Pip(4-O-2-BnPh))}-VSF[dF]-NH2) , what is its reported pKi?
stdout: 6.96

stdin: Given the compound C[C@H](NC(=O)[C@H](C)NC(=O)[C@H](CC(=O)O)NC(=O)CCN1CCC(Oc2ccccc2Cc2ccccc2)CC1)C(=O)N[C@H](Cc1ccccc1)C(N)=O [Compound 8j] ({Propanoyl(3-Pip(4-O-2-BnPh))}-DAA[dF]-NH2) , what is its reported pKi?
stdout: 5.99

stdin: Given the compound CC(C)[C@H](NC(=O)CCN1CCC(Oc2ccccc2Cc2ccccc2)CC1)C(=O)N[C@@H](CO)C(=O)N[C@@H](CC(N)=O)C(=O)N[C@H](Cc1ccccc1)C(N)=O [Compound 10f] ({Propanoyl(3-Pip(4-O-2-BnPh))}-VSN[dF]-NH2) , what is its reported pKi?
stdout: 7.02

----------
- targetOrSystem: Nluc-H1R (Homo sapiens)
- assayText: NanoBRET saturation binding assay on Nluc-H1R expressing HEK293T cells
- Set-up: expressed in transfected cells
- recordedConditions: saturation binding curves, whole HEK293T cells, non-specific with 10 μM mepyramine; mean ± SEM
Square brackets hold non-standard residues; d marks the D form. Peptide text beside a SMILES is read from it. * marks the point of attachment. X1 = O=C(COc1ccc(/C=C/C2=[N+]3C(=Cc4ccc(-c5cccs5)n4[B-]3(F)F)C=C2)cc1)*; Propanoyl(3-Pip(4-O-2-BnPh)) = O=C(CCN1CCC(Oc2ccccc2Cc2ccccc2)CC1)*; X3 = Cc1cc(C)n2c1C=C1C=CC(/C=C/c3ccc(OCC(=O)*)cc3)=[N+]1[B-]2(F)F; BODIPY(FL) = CC1=CC(C)=[N+]2C1=Cc1ccc(CCC(=O)*)n1[B-]2(F)F; βAla = NCCC(=O)O
I'd appreciate it if you could supply pKD values for the items below.

stdin: Given the compound C[C@@H](O)[C@H](NC(=O)CCN1CCC(Oc2ccccc2Cc2ccccc2)CC1)C(=O)N[C@@H](CO)C(=O)N[C@@H](Cc1ccc(O)cc1)C(=O)NCCC(=O)N[C@@H](CCCCNC(=O)COc1ccc(/C=C/C2=[N+]3C(=Cc4ccc(-c5cccs5)n4[B-]3(F)F)C=C2)cc1)C(N)=O [Compound 31g] ({Propanoyl(3-Pip(4-O-2-BnPh))}-TSY[βAla]K(X1)-NH2) , what is its reported pKD?
stdout: 8.16 ± 0.12

stdin: Given the compound C[C@H](NC(=O)[C@H](C)NC(=O)[C@H](Cc1ccccc1)NC(=O)CCN1CCC(Oc2ccccc2Cc2ccccc2)CC1)C(=O)NCCC(=O)N[C@@H](CCCCNC(=O)CCCCC[N+]1=C(/C=C/C=C/C=C2/N(C)c3ccc(S(=O)(=O)[O-])cc3C2(C)C)C(C)(C)c2cc(S(=O)(=O)O)ccc21)C(N)=O [Compound 39f] , what is its reported pKD?
stdout: 5.66 ± 0.06

stdin: Given the compound Cc1cc(C)n2c1C=C1C=CC(/C=C/c3ccc(OCC(=O)NCCCC[C@H](NC(=O)CCNC(=O)[C@H](CC(N)=O)NC(=O)[C@H](CO)NC(=O)[C@@H](NC(=O)CCN4CCC(Oc5ccccc5Cc5ccccc5)CC4)C(C)C)C(N)=O)cc3)=[N+]1[B-]2(F)F [Compound 38b] ({Propanoyl(3-Pip(4-O-2-BnPh))}-VSN[βAla]K(X3)-NH2) , what is its reported pKD?
stdout: 7.18 ± 0.11

stdin: Given the compound CC(C)C[C@H](NC(=O)CCN1CCC(Oc2ccccc2Cc2ccccc2)CC1)C(=O)N[C@@H](CO)C(=O)N[C@@H](CC(N)=O)C(=O)NCCC(=O)N[C@@H](CCCCNC(=O)COc1ccc(/C=C/C2=[N+]3C(=Cc4ccc(-c5cccs5)n4[B-]3(F)F)C=C2)cc1)C(N)=O [Compound 31j] ({Propanoyl(3-Pip(4-O-2-BnPh))}-LSN[βAla]K(X1)-NH2) , what is its reported pKD?
stdout: 8.23 ± 0.06

stdin: Given the compound CC(C)[C@H](NC(=O)CCN(C)CC/C=C1\c2ccccc2COc2ccccc21)C(=O)N[C@@H](CO)C(=O)N[C@@H](CC(N)=O)C(=O)NCCC(=O)N[C@@H](CCCn1cc(COc2ccc(/C=C/C3=[N+]4C(=Cc5ccc(-c6cccs6)n5[B-]4(F)F)C=C3)cc2)nn1)C(N)=O [Compound 28c] , what is its reported pKD?
stdout: 7.72 ± 0.11

stdin: Given the compound Cc1cc(C)n2c1C=C1C=CC(CCC(=O)NCCCC[C@H](NC(=O)CCNC(=O)[C@H](C)NC(=O)[C@H](C)NC(=O)[C@H](Cc3ccccc3)NC(=O)CCN3CCC(Oc4ccccc4Cc4ccccc4)CC3)C(N)=O)=[N+]1[B-]2(F)F [Compound 39d] ({Propanoyl(3-Pip(4-O-2-BnPh))}-FAA[βAla]K(BODIPY(FL))-NH2) , what is its reported pKD?
stdout: 5.84 ± 0.13
